SYSTEM_NAME: human ACC2 (acetyl-coenzyme A carboxylase 2) (Homo sapiens, UniProt O00763)
Sequence (O00763 27-2458 limits assumed): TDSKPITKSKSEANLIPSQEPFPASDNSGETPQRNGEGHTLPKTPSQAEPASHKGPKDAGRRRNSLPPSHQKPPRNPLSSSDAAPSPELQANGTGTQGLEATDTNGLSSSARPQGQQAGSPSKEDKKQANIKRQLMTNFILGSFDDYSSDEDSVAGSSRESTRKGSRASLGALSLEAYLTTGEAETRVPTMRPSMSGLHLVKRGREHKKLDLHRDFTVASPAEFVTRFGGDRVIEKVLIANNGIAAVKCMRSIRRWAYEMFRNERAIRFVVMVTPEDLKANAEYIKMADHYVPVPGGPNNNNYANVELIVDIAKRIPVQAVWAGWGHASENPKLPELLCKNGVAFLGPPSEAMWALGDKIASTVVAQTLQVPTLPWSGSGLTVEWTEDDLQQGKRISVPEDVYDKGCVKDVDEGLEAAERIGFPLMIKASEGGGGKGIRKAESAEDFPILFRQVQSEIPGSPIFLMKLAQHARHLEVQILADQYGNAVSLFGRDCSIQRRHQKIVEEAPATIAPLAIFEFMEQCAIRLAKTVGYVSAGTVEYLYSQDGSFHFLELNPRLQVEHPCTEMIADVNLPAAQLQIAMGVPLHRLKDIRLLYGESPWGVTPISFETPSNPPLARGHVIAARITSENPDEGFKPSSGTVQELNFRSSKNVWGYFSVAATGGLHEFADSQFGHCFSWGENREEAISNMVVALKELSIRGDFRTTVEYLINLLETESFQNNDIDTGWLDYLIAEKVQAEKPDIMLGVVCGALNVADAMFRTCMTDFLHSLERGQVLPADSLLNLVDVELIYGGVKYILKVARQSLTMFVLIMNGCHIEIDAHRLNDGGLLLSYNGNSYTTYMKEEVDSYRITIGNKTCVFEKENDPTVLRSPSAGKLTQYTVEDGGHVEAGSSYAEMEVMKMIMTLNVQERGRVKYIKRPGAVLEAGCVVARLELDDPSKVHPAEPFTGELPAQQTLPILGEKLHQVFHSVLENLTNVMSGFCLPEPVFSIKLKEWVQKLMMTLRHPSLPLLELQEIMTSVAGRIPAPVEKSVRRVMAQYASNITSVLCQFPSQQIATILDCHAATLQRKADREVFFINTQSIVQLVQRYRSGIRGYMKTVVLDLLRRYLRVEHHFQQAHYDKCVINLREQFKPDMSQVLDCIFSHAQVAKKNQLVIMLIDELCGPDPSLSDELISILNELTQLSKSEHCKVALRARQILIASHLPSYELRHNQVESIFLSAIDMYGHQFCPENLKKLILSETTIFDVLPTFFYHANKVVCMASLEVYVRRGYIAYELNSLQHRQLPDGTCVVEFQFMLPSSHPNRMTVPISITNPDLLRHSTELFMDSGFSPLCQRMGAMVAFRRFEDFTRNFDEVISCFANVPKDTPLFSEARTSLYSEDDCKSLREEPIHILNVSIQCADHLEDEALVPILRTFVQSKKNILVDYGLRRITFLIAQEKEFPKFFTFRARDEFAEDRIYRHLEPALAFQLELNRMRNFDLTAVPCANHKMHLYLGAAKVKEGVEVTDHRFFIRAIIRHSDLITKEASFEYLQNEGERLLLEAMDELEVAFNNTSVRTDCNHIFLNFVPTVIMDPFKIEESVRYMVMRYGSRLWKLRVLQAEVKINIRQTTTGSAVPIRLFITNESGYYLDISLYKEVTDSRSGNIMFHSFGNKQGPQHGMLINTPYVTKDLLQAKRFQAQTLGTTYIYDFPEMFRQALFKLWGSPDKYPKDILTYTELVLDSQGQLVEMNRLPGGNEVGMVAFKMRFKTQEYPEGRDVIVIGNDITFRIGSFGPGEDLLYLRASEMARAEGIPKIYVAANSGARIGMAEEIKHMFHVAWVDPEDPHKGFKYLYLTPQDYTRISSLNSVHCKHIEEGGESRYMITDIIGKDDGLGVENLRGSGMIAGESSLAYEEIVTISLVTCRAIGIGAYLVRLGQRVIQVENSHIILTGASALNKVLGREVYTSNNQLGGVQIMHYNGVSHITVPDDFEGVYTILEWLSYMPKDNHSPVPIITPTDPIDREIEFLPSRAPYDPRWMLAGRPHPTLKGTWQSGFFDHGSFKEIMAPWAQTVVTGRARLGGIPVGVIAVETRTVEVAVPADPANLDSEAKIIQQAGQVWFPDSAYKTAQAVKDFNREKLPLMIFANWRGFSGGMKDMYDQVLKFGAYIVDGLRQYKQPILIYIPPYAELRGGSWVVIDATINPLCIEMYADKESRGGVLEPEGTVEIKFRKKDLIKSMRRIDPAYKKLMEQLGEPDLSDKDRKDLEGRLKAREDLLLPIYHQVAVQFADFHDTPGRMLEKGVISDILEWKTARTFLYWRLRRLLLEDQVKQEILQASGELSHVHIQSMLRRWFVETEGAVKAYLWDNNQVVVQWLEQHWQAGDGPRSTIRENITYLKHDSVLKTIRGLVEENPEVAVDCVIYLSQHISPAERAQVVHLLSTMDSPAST
PROTOCOL: Human ACC2 enzyme assay, Assay B2 (ADP-Glo);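 note: human ACC2 activity read as ADP product, detected by luciferase glow luminescence after residual ATP removal, enzyme near 2 ng/µl in linear range, detection steps at 22 °C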
The following compounds are listed with their measured pIC50 values.
Entry type: numeric. Quantity: pIC50, the -log10 of concentration in molar units.

COMPOUND	pIC50
Cc1cc(C)c(-c2ccc(Cl)cc2)cc1C1=C(O)C2(CCCCC2)CC1=O	6.82

QUERY: Can you share its pIC50? I mean this compound: CO[C@H]1CC[C@]2(CC1)NC(=O)C(c1cc(-c3ccc(Cl)c(F)c3)ccc1Cl)=C2O
RESULT: 5.37

QUERY: Moving on to the next compound: Cc1ccc(-c2ccc(Cl)cc2)cc1C1=C(O)C2(CCC3(CC2)OCC(C)(C)CO3)NC1=O
RESULT: 5.28

QUERY: Moving on to the next compound: Cc1c(F)cc(-c2ccc(Cl)cc2)cc1C1=C(O)[C@]2(CC[C@H](C(F)(F)F)CC2)NC1=O
RESULT: 5.30

QUERY: Moving on to the next compound: COCCC1CCCC2(C1)NC(=O)C(c1c(C)ccc(-c3ccc(Cl)cc3)c1C)=C2O (centres unmarked)
RESULT: 5.48

QUERY: Moving on to the next compound: Cc1ccc(-c2ccc(Cl)cc2)cc1C1=C(O)C2(CCCCCC2)OC1=O
RESULT: 5.13

QUERY: Moving on to the next compound: Cc1ccc(-c2ccc(Cl)cc2)cc1C1=C(O)C2(CCCOC2)NC1=O (centres unmarked)
RESULT: 4.96

QUERY: Moving on to the next compound: Cc1ccc(-c2ccc(Cl)cc2)cc1C1=C(O)C2(CCC(OCC(F)(F)F)CC2)OC1=O (centres unmarked)
RESULT: 5.30

QUERY: Moving on to the next compound: Cc1cc(C)c(-c2ccc(Cl)cc2)cc1C1=C(O)C2(CCSCC2)OC1=O
RESULT: 5.81
